Target: NF-kB p65 (RelA) (UniProt Q04206 Q04206:1-551)
Sequence (Q04206 whole entry, one chain of several): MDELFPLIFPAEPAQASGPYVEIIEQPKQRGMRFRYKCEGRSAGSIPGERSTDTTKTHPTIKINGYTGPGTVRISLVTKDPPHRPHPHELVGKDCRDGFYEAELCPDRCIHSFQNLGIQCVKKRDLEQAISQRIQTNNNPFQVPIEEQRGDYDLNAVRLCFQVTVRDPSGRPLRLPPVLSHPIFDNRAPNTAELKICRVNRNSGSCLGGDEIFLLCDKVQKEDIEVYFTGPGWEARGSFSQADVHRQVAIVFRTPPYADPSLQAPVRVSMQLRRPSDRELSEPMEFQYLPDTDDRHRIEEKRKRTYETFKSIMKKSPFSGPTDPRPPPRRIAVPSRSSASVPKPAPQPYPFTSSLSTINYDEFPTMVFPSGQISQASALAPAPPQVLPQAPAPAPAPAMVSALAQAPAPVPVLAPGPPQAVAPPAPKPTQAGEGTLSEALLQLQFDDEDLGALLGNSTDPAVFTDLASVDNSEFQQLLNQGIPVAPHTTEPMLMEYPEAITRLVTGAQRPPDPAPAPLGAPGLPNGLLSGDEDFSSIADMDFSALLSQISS
Assay: competition
Conditions: protein: extract; tags: native, Jurkat nuclear extract (TransAM NF-kB p65 kit, Active Motif)
measurement.label: binding signal

Entry under review: SEQ-M (dsDNA) DNA 1: ACCAAGGGATTTCCCTGTCCCAC DNA 2: GTGGGACAGGGAAATCCCTTGGT . Reported binding signal?
> 1.48 IC50 ratio to SEQ-x

Entry under review: SEQ-47 (dsDNA, PS (*): C*C*TTGAAGGGACTTTCCT*C*C / 3'-G*G*AAC*T*T*…*G*G) DNA 1: CCTTGAAGGGACTTTCCTCC DNA 2: GGAGGAAAGTCCCTTCAAGG . Reported binding signal?
0.72 IC50 ratio to SEQ-x

Entry under review: SEQ-34 (dsDNA, PS (*): G*A*GGGGATTT*C*CCC / antisense 5'-G*GGGAAA*T*C*CCCTC) DNA 1: GAGGGGATTTCCCC DNA 2: GGGGAAATCCCCTC . Reported binding signal?
0.014 IC50 ratio to SEQ-x

Entry under review: SEQ-40 (mixed, LNA/RNA marked by bold/italic, positions not recoverable from text) DNA: CCTTGAGGGGATTTCCCCCC mixed: GGGGGGAAATCCCCUCAAGG . Reported binding signal?
> 2.93 IC50 ratio to SEQ-x

Entry under review: SEQ-21 (dsDNA) DNA 1: AGGGGATTTCCCCC DNA 2: GGGGGAAATCCCCT . Reported binding signal?
2.07 IC50 ratio to SEQ-I

Entry under review: SEQ-9 (dsDNA, PS (*): C*C*TTG*A*GGGGATTT*C*CCCCC / antisense 5'-G*G*GGGGAAA*T*C*CCCTCAAGG) DNA 1: CCTTGAGGGGATTTCCCCCC DNA 2: GGGGGGAAATCCCCTCAAGG . Reported binding signal?
0.02 IC50 ratio to SEQ-x
